Below, each entry is listed with its recorded melting point.

Sample answers from the record:
> print(dat)
                                   compound  quantity.name       measured
1         COC(=O)c1cc(NC(C)=O)cc(NC(C)=O)c1  melting point  220 to 221 °C
2  O=S(=O)(N[C@H]1CC[C@H](CCN2CCC(c3cccc4c3CCO4)CC2)CC1)c1ccc(F)cc1  melting point         134 °C
3  COc1cc(C(=O)N2CC2C#N)cc(OC)c1OC (stereo not drawn)  melting point    86 to 89 °C

# melting point (compound: CN(C)C(=O)c1ccccc1Sc1ccc(Br)cc1[N+](=O)[O-] ) is 112 to 114 °C

# melting point (compound: COc1cc(C)c(C(O)C#CC(F)(F)F)c(C)c1C (stereo not drawn) ) is 126 to 130 °C

# melting point (compound: COc1ccc2[nH]c(C(=NO)c3ccccc3)cc2c1 ) is 150 to 152 °C

# melting point (compound: CC1(CC(CO)CO)SCCS1 ) is 72 to 73 °C

# melting point (compound: O=[N+]([O-])c1cc(Cl)c(Cl)cc1NCCCCl ) is 78 °C

# melting point (compound: O=[N+]([O-])c1nccn1CC(F)CO (stereo not drawn) ) is 84 to 89 °C

----------
Below, each entry is listed with its recorded melting point.

Sample answers from the record:
> print(dat)
                                   compound  quantity.name       measured
1  O=C(O)CCCC=C(c1cccnc1)c1cccc(NC(=S)Nc2ccc(Cl)cc2Cl)c1  melting point  154 to 155 °C
2  CC(=O)Oc1c(C)c(C)c2c(c1C)CC(C)(CO)O2 (stereo not given)  melting point    98 to 99 °C
3  COc1cc2c3nn(-c4ccc(Cl)cc4)c(=O)c-3c[nH]c2c(OC)n1  melting point  318 to 321 °C
4  O=C(c1cc(NS(=O)(=O)c2ccccc2)ccn1)N(O)Cc1ccccc1  melting point  175 to 180 °C

# melting point (compound: CS(=O)(=O)c1ccc(-c2nc(C(F)(F)F)[nH]c2-c2ccc(Cl)c(Cl)c2)cc1 ) is 249 to 251 °C

# melting point (compound: CC(C)(C)OC(=O)NCc1ccc(CC(=O)Nc2ccc(Nc3cc(-c4cccc5c4oc4ccccc45)ncn3)cc2)cc1 ) is 238 to 240 °C

# melting point (compound: OC1(CC2CO2)c2ccccc2CCc2ccccc21 (stereo not given) ) is 116 to 118 °C

# melting point (compound: COc1ccc(C=Cc2nnc(C(F)(F)F)o2)cc1 ) is 117 to 118 °C

# melting point (compound: COc1cc(C=C2C(=O)CCc3ccc([N+](=O)[O-])cc32)c([N+](=O)[O-])cc1OC ) is 125 °C

# melting point (compound: Cc1ccc(N2C(=O)C(O)=C(C(=O)c3ccc(C(C)C)cc3)C2c2ccc(OC(C)C)nc2)nn1 (stereo not given) ) is 282 °C

----------
Quantity name: melting point

Sample answers from the record:
> print(dat)
                                   compound  quantity.name       measured
1  Cc1cc(Cl)ccc1CCN(C(=O)C(C)Cl)c1ccccc1 (stereo not given)  melting point         128 °C
2  c1ccc(-c2ccc(C3CN4CCC3CC4)cc2)cc1 (single isomer, unassigned; (+))  melting point    85 to 86 °C
3       O=c1[nH]c2c3ccccc3ccc2n(CC2CC2)c1=O  melting point         292 °C
4  NCc1ccccc1C1CCN(c2c(F)c(N)c3c(=O)c(C(=O)O)cn(C4CC4)c3c2F)C1 (stereo not given)  melting point  164 to 165 °C
5  Nc1ncc(-c2cccc(Nc3ccc(-c4ccco4)cc3[N+](=O)[O-])c2)cn1  melting point  178 to 180 °C

# melting point (compound: COc1nc2ncccc2c2nc(S(=O)(=O)Nc3c(Cl)cccc3Cl)nn12 ) is 290 to 293 °C

# melting point (compound: CCN1c2ncccc2C(=O)N(C)c2ccc(-c3c[nH]c(C#N)c3)nc21 ) is 268 to 269 °C

# melting point (compound: CCOC(=O)CC(C)(O)c1ccc(-c2ccc(F)cc2F)cc1 (stereo not given) ) is 96 to 97 °C

# melting point (compound: Cc1nc(-c2ccc3c(c2)OCC32C(=O)N(Cc3ccccn3)c3ccccc32)no1 (stereo not given) ) is 147 to 148 °C

# melting point (compound: Cc1c(SCCCCl)ccnc1CSc1nc2ccccc2[nH]1 ) is 112 to 114 °C

# melting point (compound: Cc1oc(-c2ccccc2)nc1CCOc1ccc(C#N)cc1 ) is 119 to 120 °C

# melting point (compound: Fc1ccc(Nc2cc(Cl)nc(NN=Cc3ccc(OC(F)(F)F)cc3)n2)cc1C(F)(F)F ) is 162 to 164 °C

# melting point (compound: O=C1N(CC2CCC2)c2ccccc2C1(O)c1ccc2c(c1)OCO2 (stereo not given) ) is 124 to 125 °C

# melting point (compound: COc1cc(C#N)cc(-c2ccc3c(c2)C(C)(C)OC(=O)N3)c1 ) is 254 to 255 °C

# melting point (compound: N#Cc1ccc(Cc2nc[nH]n2)cc1 ) is 151 to 153 °C

# melting point (compound: Cc1cc(-c2nncc3c(C(C)(C)C)c(OCc4ccccn4)nn23)no1 ) is 175 to 178 °C

# melting point (compound: CC(Oc1cccnc1)C(=O)Nc1ccc(C(=O)Nc2ccccc2N)cc1 (stereo not given) ) is 193 to 196 °C

# melting point (compound: Cc1c(C)c2c(c(C)c1N)CC(C)(CN1CCC(OCc3ccccc3)CC1)O2 (stereo not given) ) is 85 to 86 °C

# melting point (compound: CCOC(=O)C1=Cc2ccsc2S(=O)(=O)N1CCCOC ) is 82 to 83 °C

# melting point (compound: COc1cccc2c1C(=O)C(CC=O)C2 (racemic) ) is 102 °C

# melting point (compound: CC1(C)O[C@]23C[C@H]1CC[C@]2(C)CCCC3=O ) is 55 to 56 °C

----------
Below, each entry is listed with its recorded melting point.

Sample answers from the record:
> print(dat)
                                   molecule  quantity.name       measured
1                  O=C(CC(=O)C1CC1)c1ccncn1  melting point    81 to 84 °C
2  CCOC(=O)c1cn(C2CC2)c2nc(N3CC(C)C(N)C3)c(F)cc2c1=O (stereo not given)  melting point  148 to 150 °C
3            COCOc1c(OC)cc(C=O)c2cccc(C)c12  melting point    48 to 50 °C

# melting point (molecule: O=C1NC(=O)C(=Cc2ccc(OCC3CN(c4ccccn4)CCO3)cc2)S1 (stereo not given) ) is 188 °C

# melting point (molecule: CC(C)(C)CC(C)(CO)C(=O)O (stereo not given) ) is 96.5 to 100 °C

# melting point (molecule: CC(C)CC1=NC=C2C=CC(=O)NC3=C2N1CC3 ) is 211 to 212 °C

# melting point (molecule: CC(C)NCC#CC(O)c1ccccc1-c1ccccc1 (stereo not given) ) is 116 to 119 °C

# melting point (molecule: CCOC(=O)[C@H](CCc1ccccc1)NC(=O)C(C)(C)NC(=O)[C@@H](S)C1CCOCC1 ) is 157 to 158 °C

----------
Below, each entry is listed with its recorded melting point.

> print(dat)
                                   compound       measured
1            O=C1CCC(c2ccc(C3CCCC3)cc2)=NN1  191 to 192 °C
2  COc1cccc(-c2oc3ccccc3c(=O)c2OCCCCCCN2CCC(O)CC2)c1  119 to 120 °C
3  CCn1c2c(c3ccccc31)=CC(=C1c3ccccc3-c3ccccc31)CC=2         172 °C
4  O=C(NC1CCN(CCCOc2ccc3c4c(c(=O)oc3c2)CCCC4)CC1)c1ccccc1O  209 to 211 °C

# melting point (compound: CCCc1c(OCCCOc2ccc3c(c2CCC)OC(C(=O)O)CC3)ccc(C(C)=O)c1O (stereo not given) ) is 108 to 109 °C

# melting point (compound: Cc1ccc2c(=O)c(C(=O)O)cn(CCOC=O)c2n1 ) is 213 to 214 °C

# melting point (compound: CNC(=O)Nc1cccc2c1C(=O)c1c-2n[nH]c1-c1ccc(OC)cc1 ) is > 300 °C

# melting point (compound: C=C(C)C(=O)OCCN(CCOC(=O)C(=C)C)c1ccc(N=Nc2ccc([N+](=O)[O-])cc2)cc1 ) is 88 to 90 °C

# melting point (compound: O=C1N(c2ccc(Cl)c(Cl)c2)CCON1c1ccccc1 ) is 112 to 113 °C

# melting point (compound: CC(=O)c1cc2c(cc1NC(=O)c1coc3ccccc13)OCO2 ) is 144 to 145 °C

# melting point (compound: C[C@@H](n1ncn(-c2ccc(OC(F)(F)F)cc2)c1=O)[C@@]1(c2ccc(F)cc2F)CO1 ) is 103 to 106 °C

Data credit: a melting point compilation (Tetko et al.; mined from patent text by program, amines drawn as free bases though some values may be those of a salt)
